tested on: human SMAD7 mRNA; experiment: Dose-dependent inhibition of human SMAD7 mRNA expression in Hep3B cells (Example 3, Study 1 and 2); type: cell-based; settings: 6670.0 nM, electroporation, approximately 16 hours, Study 2
Strand notation (5' to 3'): a small letter for the sugar, then the base; units joined by * are phosphorothioate-linked, units joined directly phosphodiester-linked; [ ] holds rarer units or linkages, { } end groups; capitals alone tell only the bases. k = constrained ethyl (cEt); [5mC] = 5-methylcytosine; d = 2'-deoxy (DNA)
reported.metric: % inhibition of SMAD7 mRNA expression (%)
Give bare numbers, in %.

Dear colleague, could you send me % inhibition of SMAD7 mRNA expression for each of the items below? Thanks.
1. 798687 (antisense kG*kG*k[5mC]*dG*dA*dG*dG*dA*dG*dG*d[5mC]*dG*dA*kG*kG*kA) [compound 798687]
2. 830207 (kA*kG*kG*dT*dG*dA*d[5mC]*dT*d[5mC]*dA*dT*d[5mC]*dA*kG*kG*k[5mC]; antisense) [compound 830207]
3. 800066 (antisense kT*kG*kT*dT*dT*dT*dA*dA*dG*dT*dA*dG*d[5mC]*kA*kG*k[5mC]) [compound 800066]

Reply text:
1: 60; 2: 85; 3: 62

---

test system: murine Smad7 mRNA; assay: Dose-dependent inhibition of murine Smad7 mRNA in bEND cells, electroporation (Example 5, Study 2); assay type: cell-based, mouse; conditions: 20.00 μM, electroporation, approximately 16 hours
reported.metric: % inhibition of SMAD7 mRNA expression (%)
Answers are plain numbers, in %.

Consider the reported % inhibition of SMAD7 mRNA expression for these substances:
- substance: "798781 (CGTAAGATTCACAGCA; 3-10-3 cEt gapmer, further chemistry not given here) [compound 798781]"
  reading: 51
- substance: "830121 (AGAATCAAGCCCTGGC; 3-10-3 cEt gapmer, further chemistry not given here) [compound 830121]"
  reading: 20
- substance: "830025 (antisense TTTGTAAATCGAAAGC; 3-10-3 cEt gapmer, further chemistry not given here) [compound 830025]"
  reading: 77

// batch mode: one % inhibition of SMAD7 mRNA expression value per listed entry
1. 830037 (antisense CTATTGGCTGATCTGG; 3-10-3 cEt gapmer, further chemistry not given here) [compound 830037]
2. 736697 (antisense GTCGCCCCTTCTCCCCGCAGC; chemistry not fully specified) [compound 736697]
3. 790615 (CCAATGAGAATGCTTC; 3-10-3 cEt gapmer, further chemistry not given here) [compound 790615]

Reply text:
[0, 0, 64]

---

For each of the substances below, state its % inhibition of SMAD7 mRNA expression.
tested on: human SMAD7 mRNA; assay: Antisense inhibition of human SMAD7 mRNA expression in Hep3B cells by 5-10-5 MOE gapmers, single concentration, electroporation, RT-PCR (Example 1, Study 1 and 2); assay type: cell-based; settings: electroporation, 15,000 nM antisense oligonucleotide (Study 2), 5-10-5 MOE gapmers targeting SEQ ID NO: 1 and 2
Strand notation (5' to 3'): a small letter for the sugar, then the base; units joined by * are phosphorothioate-linked, units joined directly phosphodiester-linked; [ ] holds rarer units or linkages, { } end groups; capitals alone tell only the bases. e = 2'-O-(2-methoxyethyl) (MOE); [5mC] = 5-methylcytosine; d = 2'-deoxy (DNA)
Give bare numbers, in %.

- substance: "771921 (antisense eT*e[5mC]*e[5mC]*eT*e[5mC]*d[5mC]*d[5mC]*dT*dT*dT*dA*dA*dA*dG*dG*eG*eA*eA*eG*eG) [compound 771921]"
  test.target: "human SMAD7 mRNA"
  unit.descriptor: "%"
  % inhibition of SMAD7 mRNA expression: 14
- substance: "771944 (antisense eG*eG*eT*eA*eA*dT*dT*dT*dT*d[5mC]*d[5mC]*dT*d[5mC]*dA*dA*e[5mC]*eA*eG*eG*e[5mC]) [compound 771944]"
  test.target: "human SMAD7 mRNA"
  unit.descriptor: "%"
  % inhibition of SMAD7 mRNA expression: 8
- substance: "771801 (antisense eA*e[5mC]*e[5mC]*eT*eA*d[5mC]*dA*dA*d[5mC]*dT*d[5mC]*dA*d[5mC]*dA*dA*eG*eG*eG*eA*eG) [compound 771801]"
  test.target: "human SMAD7 mRNA"
  unit.descriptor: "%"
  % inhibition of SMAD7 mRNA expression: 31
- substance: "771483 (antisense eA*e[5mC]*eG*eG*e[5mC]*dT*dG*d[5mC]*dT*dG*d[5mC]*dA*dT*dA*dA*eA*e[5mC]*eT*e[5mC]*eG) [compound 771483]"
  test.target: "human SMAD7 mRNA"
  unit.descriptor: "%"
  % inhibition of SMAD7 mRNA expression: 22
- substance: "771794 (antisense eG*eA*eA*eG*e[5mC]*dA*dA*dG*dT*d[5mC]*dA*d[5mC]*dT*dG*d[5mC]*e[5mC]*eT*eT*e[5mC]*eT) [compound 771794]"
  test.target: "human SMAD7 mRNA"
  unit.descriptor: "%"
  % inhibition of SMAD7 mRNA expression: 68
- substance: "771465 (antisense eA*eT*e[5mC]*e[5mC]*eA*dG*dA*dG*dA*dG*dG*dG*d[5mC]*dT*d[5mC]*e[5mC]*eT*eG*eG*eA) [compound 771465]"
  test.target: "human SMAD7 mRNA"
  unit.descriptor: "%"
  % inhibition of SMAD7 mRNA expression: 0

Working through the 5 substances below one at a time, give % inhibition of SMAD7 mRNA expression for each.
1. 771760 (antisense eA*eT*e[5mC]*eT*eT*dA*d[5mC]*d[5mC]*dT*dG*dA*dA*dA*dG*d[5mC]*e[5mC]*e[5mC]*e[5mC]*e[5mC]*e[5mC]) [compound 771760]
2. 771585 (antisense eG*eA*eG*e[5mC]*e[5mC]*dG*dT*dG*d[5mC]*dT*d[5mC]*d[5mC]*dT*dG*dG*e[5mC]*eA*eG*e[5mC]*eT) [compound 771585]
3. 771930 (antisense e[5mC]*e[5mC]*eA*eG*e[5mC]*d[5mC]*d[5mC]*dA*dG*dA*dA*dA*dA*dA*d[5mC]*eT*eG*e[5mC]*eA*eA) [compound 771930]
4. 771770 (antisense e[5mC]*eT*eG*eT*eT*dG*dG*d[5mC]*dA*dG*dT*dG*d[5mC]*dT*d[5mC]*e[5mC]*e[5mC]*eA*e[5mC]*e[5mC]) [compound 771770]
5. 771466 (antisense eA*eA*eG*eA*eT*dA*dT*d[5mC]*d[5mC]*dA*dG*dA*dG*dA*dG*eG*eG*e[5mC]*eT*e[5mC]) [compound 771466]

Reply text:
3
49
26
61
38
